Source listed as paper PMC6146777.

molecules and their reported IC50
Target: Recombinant human His6-tagged galectin-3 (Gal-3) (Homo sapiens)
Construct: His6-tagged Gal-3 (tag kept), expressed in E. coli Rosetta 2 (DE3) pLysS, 28,023 Da calculated, monomer in solution
Sequence (P17931 2-250): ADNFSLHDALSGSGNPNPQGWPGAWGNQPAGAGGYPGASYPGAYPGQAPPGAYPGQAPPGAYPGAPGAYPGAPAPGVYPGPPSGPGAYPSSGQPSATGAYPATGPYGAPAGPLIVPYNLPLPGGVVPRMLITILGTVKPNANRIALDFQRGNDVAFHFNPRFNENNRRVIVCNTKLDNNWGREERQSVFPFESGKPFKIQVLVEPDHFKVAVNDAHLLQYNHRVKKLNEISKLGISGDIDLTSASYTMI
Assay: competitive ELISA, Gal-3 binding to immobilized asialofetuin
Settings: 6.5 µM Gal-3, EPBS buffer pH 7.5, 2 mM EDTA, 2 h; competitive with asialofetuin
Answer with the figure and its unit, nothing else.

CC(=O)N[C@H]1C(O)O[C@H](CO)[C@@H](O[C@@H]2O[C@H](CO)[C@H](O)[C@H](O)[C@H]2O)[C@@H]1O (some centres unmarked) [LacNAc] ... 53 µM

# ---- query molecule ----
# query: IC50 of entry CC(=O)N[C@H]1[C@H](O[C@H]2[C@H](O)[C@@H](NC(C)=O)C(O)O[C@@H]2CO)O[C@H](CO)[C@H](O)[C@@H]1O (some centres unmarked) [compound 5]
64 µM
